assay: Clearance in BALB/c mouse at 2 mg/kg, iv; format: ADME, organism-based; conditions: in vivo

>  <item-smiles>
COc1ccc(-c2cc3c(N[C@@H]4CC[C@](C)(N)C4(C)C)c(C(N)=O)cnn3c2)cn1

>  <clearance [mL/min/kg]>
16.7

$$$$

----------
pIC50: −log10 of the molar value.
What follows is a record of pIC50 for UniProt:P23458.
Sequence (P23458 whole entry): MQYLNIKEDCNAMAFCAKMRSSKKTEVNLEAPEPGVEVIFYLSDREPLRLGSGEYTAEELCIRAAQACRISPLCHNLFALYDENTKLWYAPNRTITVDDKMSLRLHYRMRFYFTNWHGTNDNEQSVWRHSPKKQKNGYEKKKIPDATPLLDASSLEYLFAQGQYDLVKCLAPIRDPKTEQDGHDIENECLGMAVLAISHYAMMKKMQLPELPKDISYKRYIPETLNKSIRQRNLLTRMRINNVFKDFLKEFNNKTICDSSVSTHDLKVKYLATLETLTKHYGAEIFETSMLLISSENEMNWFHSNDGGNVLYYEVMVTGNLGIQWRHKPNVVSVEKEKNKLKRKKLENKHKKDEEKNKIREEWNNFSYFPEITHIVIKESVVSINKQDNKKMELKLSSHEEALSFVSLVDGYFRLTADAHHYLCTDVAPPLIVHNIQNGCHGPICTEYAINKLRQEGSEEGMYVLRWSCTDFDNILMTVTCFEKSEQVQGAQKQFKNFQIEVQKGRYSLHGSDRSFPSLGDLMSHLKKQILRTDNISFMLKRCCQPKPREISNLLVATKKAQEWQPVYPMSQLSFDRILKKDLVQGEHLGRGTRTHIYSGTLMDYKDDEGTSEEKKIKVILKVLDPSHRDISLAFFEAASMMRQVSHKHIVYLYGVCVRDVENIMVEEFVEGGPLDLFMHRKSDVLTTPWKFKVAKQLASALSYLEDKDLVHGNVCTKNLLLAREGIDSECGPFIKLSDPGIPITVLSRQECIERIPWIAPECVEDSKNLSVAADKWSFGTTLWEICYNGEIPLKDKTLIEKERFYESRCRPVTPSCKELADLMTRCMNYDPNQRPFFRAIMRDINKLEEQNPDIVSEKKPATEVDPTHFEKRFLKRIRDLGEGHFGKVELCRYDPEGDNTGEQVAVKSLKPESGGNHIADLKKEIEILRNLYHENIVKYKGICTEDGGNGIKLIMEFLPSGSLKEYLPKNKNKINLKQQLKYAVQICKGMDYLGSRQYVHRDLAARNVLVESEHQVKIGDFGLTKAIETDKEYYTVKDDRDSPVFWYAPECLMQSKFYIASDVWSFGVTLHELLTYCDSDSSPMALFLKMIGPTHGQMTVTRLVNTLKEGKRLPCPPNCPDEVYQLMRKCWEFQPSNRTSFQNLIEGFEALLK
measured-quantity: pIC50

>  <item-smiles>
CC1(C)[C@H](Nc2c(C(N)=O)cnn3cc(-c4ccc(C#N)cc4)cc23)CC[C@]1(C)N

>  <readout-number>
9.05

$$$$
>  <item-smiles>
Cc1ccc(-c2cc3c(N[C@@H]4CC[C@](C)(N)C4(C)C)c(C(N)=O)cnn3c2)cc1

>  <readout-number>
9.10

$$$$
>  <item-smiles>
CC1(C)[C@H](Nc2c(C(N)=O)cnn3cc(-c4ccnc(F)c4)cc23)CC[C@]1(C)N

>  <readout-number>
8.48

$$$$
>  <item-smiles>
Cc1ccc(-c2cc3c(N[C@@H]4CC[C@](C)(N)C4(C)C)c(C(N)=O)cnn3c2)cn1

>  <readout-number>
8.70

$$$$
>  <item-smiles>
COc1cc(-c2cc3c(N[C@@H]4CC[C@](C)(N)C4(C)C)c(C(N)=O)cnn3c2)ccn1

>  <readout-number>
8.64

$$$$
>  <item-smiles>
CC1(C)[C@H](Nc2c(C(N)=O)cnn3cc(-c4cncc(F)c4)cc23)CC[C@]1(C)N

>  <readout-number>
8.18

$$$$
>  <item-smiles>
COc1ccc(-c2cc3c(N[C@@H]4CC[C@](C)(N)C4(C)C)c(C(N)=O)cnn3c2)cn1

>  <readout-number>
8.72

$$$$
>  <item-smiles>
CC1(C)[C@H](Nc2c(C(N)=O)cnn3cc(-c4ccccc4)cc23)CC[C@]1(C)N

>  <readout-number>
9.40

$$$$
>  <item-smiles>
CC1(C)[C@H](Nc2c(C(N)=O)cnn3cc(-c4ccc(F)nc4)cc23)CC[C@]1(C)N

>  <readout-number>
8.66

$$$$
